- targetSystem: T1, human TNFR2 (human, UniProt P20333 23-461)
- T1 construct: expressed on the surface of CHO cells; also called HuTNFR2; TNFRSF1B
- T1 sequence: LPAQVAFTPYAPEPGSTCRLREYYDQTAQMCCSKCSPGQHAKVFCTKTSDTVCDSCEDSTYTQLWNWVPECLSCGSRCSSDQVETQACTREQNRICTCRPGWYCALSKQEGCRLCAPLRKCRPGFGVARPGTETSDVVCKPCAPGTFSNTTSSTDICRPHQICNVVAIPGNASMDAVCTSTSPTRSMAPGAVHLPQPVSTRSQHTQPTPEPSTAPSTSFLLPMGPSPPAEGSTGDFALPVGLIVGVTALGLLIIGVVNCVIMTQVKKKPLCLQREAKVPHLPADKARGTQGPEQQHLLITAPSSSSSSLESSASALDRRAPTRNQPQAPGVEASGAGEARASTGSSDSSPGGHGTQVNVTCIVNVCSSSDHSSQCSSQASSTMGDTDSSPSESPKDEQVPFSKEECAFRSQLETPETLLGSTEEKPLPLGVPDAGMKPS
- measurementDescription: binding to human TNFR2 CHO cells

>  <binder>
IgG 1954 (antibody, name in Kabat numbering, V domains shown, IgG) VH: QVQLVQSGAEVKKPGASVKVSCKVSGFSFPSSGVDWVRQAPGQGLEWLGVTKGQGSTHYNQKFQGRVTITKDTSKSTVYMELSSLRSEDTAVYYCASGEHDEGFVYWGQGTLVTVSS VL: DIQLTQSPSFLSASVGDRVTITCKASQNVGTAVAWYQQKPGKAPKLLIYAASTLQSGVPSRFSGSGSGTEFTLTISSLQPEDFATYYCQQYSSYPLTFGGGTKVEIKR

>  <binding result>
no binding

$$$$
>  <binder>
IgG 2051 (antibody, name in Kabat numbering, V domains shown, IgG) VH: QVQLVQSGAEVKKPGASVKVSCKVSGFSFPSSGVDWVRQAPGQGLEWLGVTHGSGSTHYNQKFQGRVTITKDTSKSTVYMELSSLRSEDTAVYYCASGERDEGFVYWGQGTLVTVSS VL: DIQLTQSPSFLSASVGDRVTITCKASQNVGTAVAWYQQKPGKAPKLLIYAASTLQSGVPSRFSGSGSGTEFTLTISSLQPEDFATYYCLQYSSYPLTFGGGTKVEIKR

>  <binding result>
no binding

$$$$
